system: Streptococcus pneumoniae ATCC 49619; assay: Broth microdilution MIC, S. pneumoniae ATCC 49619; type: cell-based; details: ATCC49619, broth microdilution, 37° C., 20 hours, read-out: MIC S. pneumoniae ATCC 49619
measuredMetric: MIC (mg/L)
Use mg/L as the unit, but write only the number.

IN: Could you share which MIC value was measured for `O=c1[nH]c(NCc2ccc(Cl)c(Cl)c2)nc2c(F)n[nH]c12` ?
OUT: 32

IN: Could you share which MIC value was measured for `O=c1[nH]c(NCc2ccc(Cl)c(Cl)c2)nc2cnn(CCc3ncccn3)c12` ?
OUT: 4

IN: Could you share which MIC value was measured for `Cl.O=c1[nH]c(NCc2ccc(Cl)c(Cl)c2)nc2cnn(CCc3cccnc3)c12` ?
OUT: 4

IN: Could you share which MIC value was measured for `CC(C)OC(=O)CCCCn1ncc2nc(NCc3ccc(Cl)c(Cl)c3)[nH]c(=O)c21` ?
OUT: 16

IN: Could you share which MIC value was measured for `Cc1cc(CNc2nc3cnn(C)c3c(=O)[nH]2)ccc1Cl` ?
OUT: 4

IN: Could you share which MIC value was measured for `CN(C)C1CCN(CCn2ncc3nc(NCc4ccc(Cl)c(Cl)c4)[nH]c(=O)c32)CC1.Cl.Cl` ?
OUT: 8

IN: Could you share which MIC value was measured for `Cl.O=c1[nH]c(NCc2ccc(Cl)c(Cl)c2)nc2cnn(C3CCN(C4CCOCC4)CC3)c12` ?
OUT: 2

IN: Could you share which MIC value was measured for `CC(C)(C)OC(=O)N1CCC(n2ncc3nc(NCc4ccc(Cl)c(Cl)c4)[nH]c(=O)c32)CC1` ?
OUT: 16

IN: Could you share which MIC value was measured for `Cl.Cl.O=c1[nH]c(NCc2ccc(Cl)c(Cl)c2)nc2cnn(C3CCN(c4ccccn4)CC3)c12` ?
OUT: 16

IN: Could you share which MIC value was measured for CC(CCCn1ncc2nc(NCc3ccc(Cl)c(Cl)c3)[nH]c(=O)c21)C(=O)O (stereo not drawn) ?
OUT: 8

Further cases:
IN: Could you share which MIC value was measured for `O=c1[nH]c(NCc2ccc(Cl)c(Cl)c2)nc2c(F)nn(Cc3cocn3)c12` ?
OUT: 4

IN: Could you share which MIC value was measured for `C[C@@H](O)Cn1ncc2nc(NCc3ccc(Cl)c(Cl)c3)[nH]c(=O)c21` ?
OUT: 8

IN: Could you share which MIC value was measured for `CP(C)(=O)CCCCn1nc(F)c2nc(NCc3ccc(F)c(F)c3)[nH]c(=O)c21` ?
OUT: 16

IN: Could you share which MIC value was measured for `O=c1[nH]c(NCc2ccc(Cl)c(Cl)c2)nc2cnn(CCN3CCNCC3)c12` ?
OUT: 16

###

Test system: Enterococcus faecalis ATCC 29212
Assay: Broth microdilution MIC, E. faecalis ATCC 29212
Type: cell-based
Details: ATCC29212, broth microdilution, 37° C., 20 hours, read-out: MIC E. faecalis ATCC 29212
Text: Bacteria tested are Staphylococcus aureus NRS384 (a methicillin-resistant Staphylococcus aureus, MRSA), Staphylococcus aureus ATCC 29213 (a methicillin-sensitive Staphylococcus aureus, MSSA), Streptococcus pneumoniae ATCC 49619, Enterococcus faecalis ATCC 29212, Enterococcus faecium ATCC 700221 (a vancomycin-resistant enterococcus, VRE), Bacillus subtilis ATCC 6633, and Escherichia coli ATCC 25922. […]
Known MIC of a selection of molecules

IN: Could you share which MIC value was measured for COC(=O)C(C)n1ncc2nc(NCc3ccc(Cl)c(Cl)c3)[nH]c(=O)c21 (stereo not shown) ?
OUT: 16 µg/mL

IN: Could you share which MIC value was measured for `O=c1[nH]c(NCc2ccc(Cl)c(Cl)c2)nc2cnn(-c3ncccn3)c12` ?
OUT: > 64 µg/mL

IN: Could you share which MIC value was measured for `CSCOCCOCCn1ncc2nc(NCc3ccc(Cl)c(Cl)c3)[nH]c(=O)c21` ?
OUT: 8 µg/mL

IN: Could you share which MIC value was measured for CN1CCOC(Cn2ncc3nc(NCc4ccc(Cl)c(Cl)c4)[nH]c(=O)c32)C1.Cl (stereo not shown) ?
OUT: 8 µg/mL

IN: Could you share which MIC value was measured for Cl.O=C(c1cccnc1)N1CCCC(Cn2ncc3nc(NCc4ccc(Cl)c(Cl)c4)[nH]c(=O)c32)C1 (stereo not shown) ?
OUT: 16 µg/mL

IN: Could you share which MIC value was measured for `Cl.O=c1[nH]c(NCc2ccc(Cl)c(Cl)c2)nc2cnn(Cc3ccccn3)c12` ?
OUT: > 64 µg/mL

IN: Could you share which MIC value was measured for `NC(=O)COCCn1ncc2nc(NCc3ccc(Cl)c(Cl)c3)[nH]c(=O)c21` ?
OUT: 16 µg/mL

IN: Could you share which MIC value was measured for `CN(CCn1ncc2nc(NCc3ccc(Cl)c(Cl)c3)[nH]c(=O)c21)C(=O)c1cnoc1` ?
OUT: 8 µg/mL

IN: Could you share which MIC value was measured for `Cc1cncc(C(=O)N2CCC(n3ncc4nc(NCc5ccc(Cl)c(Cl)c5)[nH]c(=O)c43)CC2)c1.Cl` ?
OUT: 4 µg/mL

IN: Could you share which MIC value was measured for `COc1ccc(Cn2ncc3nc(NCc4ccc(Cl)c(Cl)c4)[nH]c(=O)c32)cc1OC` ?
OUT: > 64 µg/mL

Further cases:
IN: Could you share which MIC value was measured for `O=c1[nH]c(NCc2ccc(Cl)c(Cl)c2)nc2c(F)nn(CCOCCO)c12` ?
OUT: 2 µg/mL

IN: Could you share which MIC value was measured for Cl.O=c1[nH]c(NCc2ccc(Cl)c(Cl)c2)nc2cnn(CC3CCCNC3)c12 (stereo not shown) ?
OUT: 32 µg/mL

IN: Could you share which MIC value was measured for `O=C(c1cocn1)N1CCC(n2ncc3nc(NCc4ccc(Cl)c(Cl)c4)[nH]c(=O)c32)CC1` ?
OUT: 4 µg/mL

###

tested on: Streptococcus pneumoniae ATCC 49619; assay: Broth microdilution MIC, S. pneumoniae ATCC 49619; assay type: cell-based; conditions: ATCC49619, broth microdilution, 37° C., 20 hours, read-out: MIC S. pneumoniae ATCC 49619
Known MIC of a selection of compounds

IN: Could you share which MIC value was measured for COc1ccc(CNc2nc3cnn(C)c3c(=O)[nH]2)cc1OC [Compound 32] ?
OUT: > 64 µg/mL

IN: Could you share which MIC value was measured for Cl.O=C(O)C1(Cn2ncc3nc(NCc4ccc(Cl)c(Cl)c4)[nH]c(=O)c32)CCNCC1 [Compound 196] ?
OUT: > 64 µg/mL

IN: Could you share which MIC value was measured for Cn1ncc2nc(NCCc3ccc(Cl)c(Cl)c3)[nH]c(=O)c21 [Compound 8] ?
OUT: > 64 µg/mL

IN: Could you share which MIC value was measured for Cn1ncc2nc(Nc3ccccc3)[nH]c(=O)c21 [Compound 10] ?
OUT: > 64 µg/mL

###

Known MIC of a selection of compounds
system: Enterococcus faecalis ATCC 29212; assay: Broth microdilution MIC, E. faecalis ATCC 29212; assay type: cell-based; conditions: ATCC29212, broth microdilution, 37° C., 20 hours, read-out: MIC E. faecalis ATCC 29212

IN: Give recorded MIC with Enterococcus faecalis ATCC 29212 for the following compound: COCC(COC)n1ncc2nc(NCc3ccc(Cl)c(Cl)c3)[nH]c(=O)c21 [Compound 106]
OUT: > 64 µg/mL

IN: Give recorded MIC with Enterococcus faecalis ATCC 29212 for the following compound: Cl.O=C(c1cnc[nH]1)N1CCC(n2ncc3nc(NCc4ccc(Cl)c(Cl)c4)[nH]c(=O)c32)CC1 [Compound 270]
OUT: 8 µg/mL

IN: Give recorded MIC with Enterococcus faecalis ATCC 29212 for the following compound: O=C(O)COCCn1cc2nc(NCc3ccc(Cl)c(Cl)c3)[nH]c(=O)c2n1 [Compound 141]
OUT: > 64 µg/mL

Further cases:
IN: Give recorded MIC with Enterococcus faecalis ATCC 29212 for the following compound: COCCCCCn1cc2nc(NCc3ccc(Cl)c(Cl)c3)[nH]c(=O)c2n1 [Compound 133]
OUT: > 64 µg/mL

###

Known MIC of a selection of compounds
test system: Streptococcus pneumoniae ATCC 49619; assay: Broth microdilution MIC, S. pneumoniae ATCC 49619; assay type: cell-based; conditions: ATCC49619, broth microdilution, 37° C., 20 hours, read-out: MIC S. pneumoniae ATCC 49619

IN: Could you share which MIC value was measured for Cl.O=c1[nH]c(NCc2ccc(Cl)c(Cl)c2)nc2cnn(CC3(CO)CCNCC3)c12 [Compound 195] ?
OUT: 16 µg/mL

IN: Could you share which MIC value was measured for O=c1[nH]c(NCc2ccc(Cl)c(Cl)c2)nc2cnn(Cc3coc(CO)n3)c12 [Compound 171] ?
OUT: 8 µg/mL

IN: Could you share which MIC value was measured for O=c1[nH]c(NCc2ccc(Cl)c(Cl)c2)nc2cnn(Cc3cocn3)c12 [Compound 92] ?
OUT: 4 µg/mL
